These entries and their values trace back to patent US20190085323A1.

Some binders, each annotated with its measured % cell viability (AL2).
experimentalSystem: HER2 on the surface of N87 gastric cancer cells (human, UniProt P04626 23-1255)
methodDescription: cell-based or functional assay
Respond with the bare value in %.

Below are worked cases with known answers.
30CHS-12 source scFv (scFv) DIQMTQSPSSLSASVGDRVTITCKSNQNLLDSGNQGTFLNWYQQKPGKAPKLLIFGTSHLYSGVPSRFSGSGSGTDFTLTISSLQPEDFATYYCSQSTDLPFTFGQGTKVEIKREVQLVESGGGLVQPGGSLRLSCAASGFTISDYWIHWVRQAPGKGLEWVAGINPYYGVTVYADSVKGRFTISADTSKNTAYLQMNSLRAEDTAVYYCARGGVLDYWGQGTLVTVSSASAAA; 61.7
35CPT-9 source scFv (scFv) DIQMTQSPSSLSASVGGRVTITCKSNQNLLDSYGRTYLYWYQQKPGKAPKLLISGTSGLYSGVPSRFSGSGSGTDFTLTISSLQPEDFATYYCFQGYDYPFTFGQGTKVEIKREVQLVESGGGLVQPGGSLRLSCKASGYTFGDYGMHWVRQAPGKGLEWVAHIAPNDGITHYADSVKGRFTISADTSKNTAYLQMNSLRAEDTAVYYCARGYGWYDHVMDYWGQGTLVTVSSASAAA; 17.9
30CHS-41 source scFv (scFv) DIQMTQSPSSLSASVGDRVTITCKSNQNLLDSGHQRTYLNWYQQKPGKAPKLLIYHTSLLYSGVPSRFSGSGSGTDFTLTISSLQPEDFATYYCSQTFRHPGTFGQGTKVEIKREVQLVESGGGLVQPGGSLRLSCKASGYTFTHWGMHWVRQAPGKGLEWVARINPYYGLTHYADSVKGRFTISADTSKNTAYLQMNSLRAEDTAVYYCARGHWLDYWGQGTLVTVSSASAAA; 71.6

Look up % cell viability (AL2) for this binder: 35WYK-16 source scFv (scFv) DIQMTQSPSSLSASVGDRVTITCKSNQNLLLSNGRTFLYWYQQKPGKAPKLLIYDVSDLYSGVPSRFSGSGSGTDFTLTISSLQPEDFATYYCFQGNNFPYTFGQGTKVEIKREVQLVESGGGLVQPGGSLRLSCKASGYTFGTSWMHWVRQAPGKGLEWVAGITPYYGLTFYADSVKGRFTISADTSKNTAYLQMNSLRAEDTAVYYCARGNLDYWGQGTLVTVSSASAAA 41.4
